Assign activity, negative = cell killing to each entry below.
assay: Drug repurposing screens with cells derived from glioblastoma tumor samples (AID 1345199); conditions: GBM patient neurospheres viability, ATP luminescence, 48 h; at 45.9 µM (top of the series); tumour line B; also: % is scaled to controls: 0 for no effect and ±100 for the full control effect; nearly all actives have a fitted effect of over 40% in size
Results filed as inconclusive are left out.
One number for each entry, in %.

The examples below pair each entry with its known result.
Cc1cc(C)c(/C=C2\C(=O)Nc3ccccc32)[nH]1    -6.6
Cc1nc2ccccn2c(=O)c1CCN1CCC(C(=O)c2ccc(F)cc2)CC1    -22.2
CN(C)CCN(Cc1cccs1)c1ccccn1    -18
CCCCCN(CCCCC)C(=O)C(CCC(=O)O)NC(=O)c1ccc(Cl)c(Cl)c1 (stereo not given)    -4.86
CNCCC(Oc1ccccc1OC)c1ccccc1 (stereo not given)    -10.4
CCN1CCC[C@H]1CNC(=O)c1c(O)c(Cl)cc(Cl)c1OC    -11.9

// each compound listed below needs its activity, negative = cell killing
1. CN(C)CC[C@@H](c1ccc(Br)cc1)c1ccccn1
2. CN(C)[C@@H]1C(=O)C(C(N)=O)=C(O)[C@@]2(O)C(=O)C3=C(O)c4c(O)ccc(Cl)c4[C@@H](O)[C@H]3C[C@@H]12
3. C[C@]12C=CC(=O)C=C1CC[C@H]1[C@@H]3C[C@@H](O)[C@](O)(C(=O)CO)[C@@]3(C)C[C@H](O)[C@@]12F

[-11, -11.7, -11.4]

Any idea what its activity, negative = cell killing is? The compound is `NC(=O)N1c2ccccc2C=Cc2ccccc21`
-0.221

---

System: CP269
Test: qHTS profiling for inhibitors of Plasmodium falciparum proliferation (AID 504749); also: nearly all actives have a fitted effect of over 60% in size
Conditions: P. falciparum in erythrocytes, SYBR Green DNA, 72 h; series mostly up to 28.7 µM
Procedure: NIH National Institute of Allergy and Infectious Diseases [NIAID] NIH Chemical Genomics Center [NCGC] […] Because mature erythrocytes lack DNA, only Plasmodium-derived DNA is detected. NCGC Assay Protocol Summary: The SYBR Green viability assay was adapted from a method described previously (Plouffe et al., 2008). […] The following morning, fluorescence intensity at 485(14) nm excitation and 535(25) nm emission wavelengths was measured on an EnVision (Perkin Elmer) plate reader. […]
Inconclusive results are not listed. Activity calls are given as the source filed them. Calls come from the whole dose curve; as a rule, active = well fitted inhibition curve with a large enough effect; inconclusive = small, poorly fitted or top-dose-only effect; inactive = flat fitted curve, though single readings scatter.
Outcomes you can answer with include only these: T for active, F for inactive

These solved cases illustrate the format of a correct answer.
Brc1c(NC2=NCCN2)ccc2nccnc12    F
COC(=O)C1=C(C)NC(C)=C(C(=O)OC(C)(C)CN(C)CCC(c2ccccc2)c2ccccc2)C1c1cccc([N+](=O)[O-])c1 (stereo not drawn)    T
CCN1CCC[C@H]1CNC(=O)c1c(O)c(Cl)cc(Cl)c1OC    F
CN=C(NC#N)NCCSCc1nc[nH]c1C    F
CCCCCCCC/C=C\CCCCCCCC(=O)NCc1ccc(O)c(OC)c1    F

State the result this test recorded for CNC1(C)C2CCC(C2)C1(C)C (stereo not drawn) .
F

Then this molecule: `NC(=O)c1cn(Cc2c(F)cccc2F)nn1`
F

Query `CN(C)CCOC(=O)COc1ccc(Cl)cc1` next
F

Subsequent entry: `CN(C)C/C=C(/c1ccc(Br)cc1)c1cccnc1`
F

---

test system: AS120; assay: qHTS profiling for inhibitors of Plasmodium falciparum proliferation (AID 504749); also: nearly all actives have a fitted effect of over 60% in size; details: P. falciparum in erythrocytes, SYBR Green DNA, 72 h; series mostly up to 28.7 µM
Inconclusive results are not listed. The source made the active and inactive calls. Calls come from the whole dose curve; as a rule, active = well fitted inhibition curve with a large enough effect; inconclusive = small, poorly fitted or top-dose-only effect; inactive = flat fitted curve, though single readings scatter.
Use one of these outcomes when replying: True = active, False = inactive

Known results for molecules:
CCN(CC)CC(=O)Nc1c(C)cccc1C    False
CC(=O)[C@]1(O)Cc2c(O)c3c(c(O)c2[C@@H](O[C@H]2C[C@H](N)[C@H](O)[C@H](C)O2)C1)C(=O)c1ccccc1C3=O    True

Short answer needed: outcome of this test for `CCNC(=O)N1CCN(CCCC(c2ccc(F)cc2)c2ccc(F)cc2)CC1` ?
True
